Where a name gives a salt, the structure may show the parent alone.
PROPERTY MEASURED: melting point

>  <COMPOUND>
CC(=O)Nc1ccc(OC(=O)C(N)CSSCC(N)C(=O)O)cc1.Cl.Cl (stereo not shown)

>  <melting point>
230 to 237 °C

$$$$
>  <COMPOUND>
CSCC[C@H](N)C(=O)Oc1ccc(NC(C)=O)cc1 (as salt: HCl)

>  <melting point>
225 to 228 °C

$$$$
>  <COMPOUND>
CC(=O)Nc1ccc(OC(=O)C(CSSCC(NC(C)=O)C(=O)O)NC(C)=O)cc1 (stereo not shown)

>  <melting point>
95 to 99 °C

$$$$

Query block: Recall and state the measured melting point for CC(=O)Nc1ccc(OC(=O)C(N)CSSCC(N)C(=O)Oc2ccc(NC(C)=O)cc2)cc1 (stereo not shown) (as salt: trifluoroacetate) .
Result block: > 300 °C

Reference source for all entries: patent US9951001B2
